molecular target: Proteasome subunit beta type-5 (Mus musculus) (UniProt O55234); assay: Inhibition of chymotrypsin-like activity of 20S proteasome in mouse blood at 2.5 uM pretreated for 40 mins followed by Suc-Leu-Leu-Val-Tyr-AMC substrate addition by fluorescence assay relative to control
Sequence (O55234 whole entry): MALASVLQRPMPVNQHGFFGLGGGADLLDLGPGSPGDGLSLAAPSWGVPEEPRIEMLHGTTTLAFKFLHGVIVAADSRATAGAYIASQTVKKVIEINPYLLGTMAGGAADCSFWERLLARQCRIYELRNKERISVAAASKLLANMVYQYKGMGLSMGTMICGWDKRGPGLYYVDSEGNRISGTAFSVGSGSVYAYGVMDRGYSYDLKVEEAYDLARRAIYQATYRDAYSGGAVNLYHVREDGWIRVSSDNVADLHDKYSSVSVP
Active and inactive are the calls of the source. The rule behind the calls is not given here.
quantity-kind: inhibition

# example entries with known answers
1. CC(C)(C)CNC(=O)C[C@H](NC(=O)N1CCC(C(=O)Nc2ccc(F)cc2)CC1)C(=O)N[C@@H](CCc1ccccc1)C(=O)NCc1ccccc1Cl    Active
2. CC(C)(C)CNC(=O)C[C@H](NC(=O)N1CCC(C(=O)Nc2cccnc2)CC1)C(=O)N[C@@H](CCc1ccccc1)C(=O)NCc1ccccc1Cl    > 70%
3. CC(C)(C)CNC(=O)C[C@H](NC(=O)N1CCC(C(=O)Nc2nccs2)CC1)C(=O)N[C@@H](CCc1ccccc1)C(=O)NCc1ccccc1Cl    Active
4. CC(C)C[C@H](NC(=O)[C@H](CCc1ccccc1)NC(=O)CN1CCOCC1)C(=O)N[C@@H](Cc1ccccc1)C(=O)N[C@@H](CC(C)C)C(=O)[C@@]1(C)CO1    Active
5. CC(C)(C)CNC(=O)C[C@H](NC(=O)N1CCC(NC(=O)c2ccc(F)cc2)CC1)C(=O)N[C@@H](CCc1ccccc1)C(=O)NCc1ccccc1Cl    > 70%
6. CC(C)(C)CNC(=O)C[C@H](NC(=O)N1CCC(C(=O)Nc2cnccn2)CC1)C(=O)N[C@@H](CCc1ccccc1)C(=O)NCc1ccccc1Cl    > 70%

Task: Looking for the measured inhibition of CC(C)(C)CNC(=O)C[C@H](NC(=O)N1CCC(C(=O)NCc2nccs2)CC1)C(=O)N[C@@H](CCc1ccccc1)C(=O)NCc1ccccc1Cl , can you help?
Output: Active

###

target: Proteasome Macropain subunit MB1 (Homo sapiens, UniProt P28074); test: Inhibition of chymotrypsin-like activity of human 20S proteasome pretreated for 15 mins followed by Suc-Leu-Leu-Val-Tyr-AMC substrate addition by fluorescence assay
Sequence (P28074 whole entry): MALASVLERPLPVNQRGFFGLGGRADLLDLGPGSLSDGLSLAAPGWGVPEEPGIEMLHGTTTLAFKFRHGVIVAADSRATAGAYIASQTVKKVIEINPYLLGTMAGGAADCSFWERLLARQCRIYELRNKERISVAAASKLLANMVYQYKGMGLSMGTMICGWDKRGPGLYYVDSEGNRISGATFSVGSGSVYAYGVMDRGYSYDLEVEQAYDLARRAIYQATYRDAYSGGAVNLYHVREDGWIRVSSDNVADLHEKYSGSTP
pIC50: −log10 of the molar value.
quantity-kind: pIC50

# example entries with known answers
1) CC(C)(C)CNC(=O)C[C@H](NC(=O)C1CCN(C(=O)c2cnccn2)CC1)C(=O)N[C@@H](CCc1ccccc1)C(=O)NCc1ccccc1Cl    8.62
2) CC(C)(C)CNC(=O)C[C@H](NC(=O)N1CCC(NC(=O)c2cnccn2)CC1)C(=O)N[C@@H](CCc1ccccc1)C(=O)NCc1ccc(F)cc1F    7.97
3) CC(C)(C)CNC(=O)C[C@H](NC(=O)N1CCC(C(=O)Nc2cnccn2)CC1)C(=O)N[C@@H](CCc1ccccc1)C(=O)NCc1ccc(F)cc1F    8.18
4) CC(C)(C)CNC(=O)C[C@H](NC(=O)N1CCC(C(=O)Nc2cnccn2)CC1)C(=O)N[C@@H](CCc1ccccc1)C(=O)NCc1ccccc1Cl    9.22
5) CC(C)(C)CNC(=O)C[C@H](NC(=O)N1CCC(C(=O)Nc2ccc(F)cc2)CC1)C(=O)N[C@@H](CCc1ccccc1)C(=O)NCc1ccccc1Cl    8.82
6) C[C@H](NC(=O)[C@H](CC(=O)NCC(C)(C)C)NC(=O)N1CCC(C(=O)Nc2cnccn2)CC1)C(=O)NCc1ccccc1Cl    7.71
7) CC(C)C[C@H](NC(=O)[C@H](CC(=O)NCC(C)(C)C)NC(=O)N1CCC(C(=O)Nc2cnccn2)CC1)C(=O)NCc1ccccc1Cl    7.94
8) CC(C)(C)CNC(=O)C[C@H](NC(=O)N1CCC(C(=O)Nc2ccon2)CC1)C(=O)N[C@@H](CCc1ccccc1)C(=O)NCc1ccccc1Cl    8.15

1 = CC(C)(C)CNC(=O)C[C@H](NC(=O)N1CCC(NC(=O)c2cnccn2)CC1)C(=O)N[C@@H](CCc1ccccc1)C(=O)NCc1ccc2c(c1)OCO2
2 = CC(C)(C)CNC(=O)C[C@H](NC(=O)C1CCN(C(=O)c2ccc(F)cc2)CC1)C(=O)N[C@@H](CCc1ccccc1)C(=O)NCc1ccccc1Cl
Task: Of 1 and 2 , which one carries the higher reported pIC50? // caller expects the label of the chosen entry
Output: 2
